# measured.on: human GRP receptor (human, UniProt P30550 1-384)
# Sequence (P30550 whole entry): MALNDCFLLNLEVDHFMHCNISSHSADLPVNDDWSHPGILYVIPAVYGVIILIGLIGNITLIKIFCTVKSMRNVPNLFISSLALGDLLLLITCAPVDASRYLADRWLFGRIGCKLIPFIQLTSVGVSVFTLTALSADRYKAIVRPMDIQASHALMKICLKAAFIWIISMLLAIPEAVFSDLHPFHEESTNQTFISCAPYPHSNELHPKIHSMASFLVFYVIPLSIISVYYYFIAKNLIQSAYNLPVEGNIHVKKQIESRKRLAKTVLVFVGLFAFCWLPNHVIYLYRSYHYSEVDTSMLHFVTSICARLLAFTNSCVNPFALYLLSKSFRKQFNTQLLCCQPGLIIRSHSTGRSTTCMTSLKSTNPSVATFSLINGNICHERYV
# procedure.summary: cell-based or functional assay
Starred links: 1 amine or outer side, 2 acyl side, 3 side chain; linkers in the order of their positions; H or OH if unused. Non-standard residues stand in square brackets, D forms with d. No end group written: not given here. *: point of attachment. Trp(7-F) = N[C@@H](Cc1c[nH]c2c(F)cccc12)C(=O)O; Trp(7-Me) = Cc1cccc2c(C[C@H](N)C(=O)O)c[nH]c12; C20 diacid = O=C(O)CCCCCCCCCCCCCCCCCCC(=O)*; d(γGlu) = O=C(O)[C@@H](CCC(=O)[*:2])N[*:1]; C18 diacid = O=C(O)CCCCCCCCCCCCCCCCC(=O)*; γGlu = O=C(O)[C@H](CCC(=O)[*:2])N[*:1]; NMeH = CN[C@@H](Cc1c[nH]cn1)C(=O)O; Palmitoyl = CCCCCCCCCCCCCCCC(=O)*; Nle = CCCC[C@H](N)C(=O)O; AEEA = NCCOCCOCC(=O)O; Ava = NCCCCC(=O)O
parameter: hIP1 GRPR EC50 (nM)

Below are worked cases with known answers.
{"columns": ["binder", "units", "hIP1 GRPR EC50"],
 "data": [
  ["{C20 diacid}-[γGlu][AEEA][AEEA]GNHWAV[dA]HL[Nle] [Peptide 148]", "nM", 126],
  ["{C18 diacid}-[d(γGlu)][AEEA][AEEA]GNHWAV[dA]FL[Nle]-NH2 (SMILES CCCC[C@H](NC(=O)[C@H](CC(C)C)NC(=O)[C@H](Cc1ccccc1)NC(=O)[C@@H](C)NC(=O)[C@@H](NC(=O)[C@H](C)NC(=O)[C@H](Cc1c[nH]c2ccccc12)NC(=O)[C@H](Cc1c[nH]cn1)NC(=O)[C@H](CC(N)=O)NC(=O)CNC(=O)COCCOCCNC(=O)COCCOCCNC(=O)CC[C@@H](NC(=O)CCCCCCCCCCCCCCCCC(=O)O)C(=O)O)C(C)C)C(N)=O) [Peptide 62]", "nM", 83.7],
  ["{C18 diacid}-[d(γGlu)][Ava]GNHWAV[dA]HL[Nle]-NH2 (SMILES CCCC[C@H](NC(=O)[C@H](CC(C)C)NC(=O)[C@H](Cc1c[nH]cn1)NC(=O)[C@@H](C)NC(=O)[C@@H](NC(=O)[C@H](C)NC(=O)[C@H](Cc1c[nH]c2ccccc12)NC(=O)[C@H](Cc1c[nH]cn1)NC(=O)[C@H](CC(N)=O)NC(=O)CNC(=O)CCCCNC(=O)CC[C@@H](NC(=O)CCCCCCCCCCCCCCCCC(=O)O)C(=O)O)C(C)C)C(N)=O) [Peptide 80]", "nM", 5.11],
  ["Palmitoyl-[γGlu][AEEA][AEEA]GNH[Trp(7-F)]AV[dA]HL[Nle]-NH2 (SMILES CCCCCCCCCCCCCCCC(=O)N[C@@H](CCC(=O)NCCOCCOCC(=O)NCCOCCOCC(=O)NCC(=O)N[C@@H](CC(N)=O)C(=O)N[C@@H](Cc1c[nH]cn1)C(=O)N[C@@H](Cc1c[nH]c2c(F)cccc12)C(=O)N[C@@H](C)C(=O)N[C@H](C(=O)N[C@H](C)C(=O)N[C@@H](Cc1c[nH]cn1)C(=O)N[C@@H](CC(C)C)C(=O)N[C@@H](CCCC)C(N)=O)C(C)C)C(=O)O) [Peptide 87]", "nM", 1.73]
]}

P. {C20 diacid}-[γGlu][γGlu][AEEA][AEEA]GDH[Trp(7-Me)]AV[BABA][NMeH]L[Nle]-NH2 [Peptide 278]
Q. GNHWAVXHLX (Palmitoyl-Gly-Asn-His-Trp-Ala-Val-D-Ala-His-Leu-Nle-NH2) [Peptide 10]
R. {C20 diacid}-[γGlu][γGlu][AEEA][AEEA]GNH[Trp(7-Me)]AV[BABA]HL[Nle]-NH2 [Peptide 258]
Exercise: Please order the records by their reported hIP1 GRPR EC50, lowest number first. Put the labels in the requested order and write them down.
Solution: Q, R, P
(Q: 3.8 nM, R: 6 nM, P: 10.8 nM)
